Tested on: Liver cytosol
Protocol Notes: Drug metabolism in human liver cytosol assessed as 4-(4-chloro-1-(4-(2-(dimethylamino)ethoxy)phenyl)-2-phenylbut-1-enyl)phenyl hydrogen sulfate formation measured per mg of protein after 15 mins by Michaelis-Menten equation in presence of 20 uM PAPS
Type: ADME
Experimental Context: 0.25 h
Measured Parameter: Vmax
Units required after the number.

Inquiry: Look up and report measured Vmax for this entry: CN(C)CCOc1ccc(/C(=C(/CCCl)c2ccccc2)c2ccc(O)cc2)cc1 [4-HYDROXYTORMIFENE]
Reply text: 1.4 nmol/min/mg

====

System: Liver cytosol
Protocol Notes: Drug metabolism in human liver cytosol assessed as 4-(4-chloro-1-(4-(2-(dimethylamino)ethoxy)phenyl)-2-phenylbut-1-enyl)phenyl hydrogen sulfate formation after 15 mins by Michaelis-Menten equation in presence of 20 uM PAPS
Assay type: ADME
Experimental Context: 0.25 h, read-out: Km(app)
Measured Parameter: Km (µM)
Output spec: scalar in µM, unitless text.

Inquiry: Look up and report measured Km for this entry: CN(C)CCOc1ccc(/C(=C(/CCCl)c2ccccc2)c2ccc(O)cc2)cc1 [4-HYDROXYTORMIFENE]
Reply text: 3.5

FYI, the data here is from ChEMBL document CHEMBL3525912.
